Molecular target: Tyrosine-protein kinase JAK1 (Homo sapiens)
Experiment: JAK1 (PSTAT3 TF1) Alpha Screen Assay
Description: IL-6 is known to transduce its signal through IL-6 receptor via Jak1. Activity against Jak was therefore measured by determining inhibition of IL-6 induced phosphorylation of STAT3 in TF1 cells. From these tests, the EC50 (effective concentration for 50% maximal response) values were determined in 1 μM for the test compounds.
pEC50: −log10 of the molar value.
Record condition met whenever pEC50 is at 5 or higher; record condition not met when lower.

Check out these entries, answers already filled in.
CO[C@]1(c2cc(C)cc(-c3cn(C)c4cnc(NC(N)=O)cc34)n2)CCOC1: condition met
COCCOc1cc(-c2cn(C)c3cnc(NC(C)=O)cc23)nc([C@]2(CO)CCOC2)c1: condition not met
CO[C@@]1(c2cc(OCC[C@H](C)O)cc(-c3cn(C)c4cnc(NC(C)=O)cc34)n2)CCOC1: condition not met
COc1cc(-c2cn(C)c3cnc(NC(N)=O)cc23)nc([C@]2(OC)CCOC2)c1: condition not met

Challenge: Entry CC[C@@]1(c2cccc(-c3cn(C)c4cnc(NC(N)=O)cc34)n2)CCOC1 : is its pEC50 no less than 5?
Response given: condition met

Challenge: Now try COCCOc1cc(-c2cn(C)c3cnc(NC(C)=O)cc23)nc([C@]2(OC)CCOC2)c1 .
Response given: condition not met

Challenge: Now try Cn1cc(-c2cncc([C@]3(C)CCOC3)n2)c2cc(NC(N)=O)ncc21 .
Response given: condition met

Challenge: Now try Cn1cc(-c2cncc([C@@]3(C)CCOC3)n2)c2cc(NC(N)=O)ncc21 .
Response given: condition met

Challenge: Now try COc1cc(-c2cn(C3COC3)c3cnc(NC(C)=O)cc23)nc([C@]2(OC)CCOC2)c1 .
Response given: condition not met

Challenge: Now try CO[C@@]1(c2cc(O[C@H]3C[C@H](O)C3)cc(-c3cn(C)c4cnc(NC(C)=O)cc34)n2)CCOC1 .
Response given: condition not met

Challenge: Now try CO[C@H](C)COc1cc(-c2cn(C)c3cnc(NC(C)=O)cc23)nc([C@]2(OC)CCOC2)c1 .
Response given: condition not met

* * *

Provide the recorded log10 of EC50 for the entries that follow.
molecular target: Tyrosine-protein kinase JAK1 (Homo sapiens, UniProt P23458); assay: JAK1 (PSTAT3 TF1) Alpha Screen Assay
Sequence (P23458 whole entry): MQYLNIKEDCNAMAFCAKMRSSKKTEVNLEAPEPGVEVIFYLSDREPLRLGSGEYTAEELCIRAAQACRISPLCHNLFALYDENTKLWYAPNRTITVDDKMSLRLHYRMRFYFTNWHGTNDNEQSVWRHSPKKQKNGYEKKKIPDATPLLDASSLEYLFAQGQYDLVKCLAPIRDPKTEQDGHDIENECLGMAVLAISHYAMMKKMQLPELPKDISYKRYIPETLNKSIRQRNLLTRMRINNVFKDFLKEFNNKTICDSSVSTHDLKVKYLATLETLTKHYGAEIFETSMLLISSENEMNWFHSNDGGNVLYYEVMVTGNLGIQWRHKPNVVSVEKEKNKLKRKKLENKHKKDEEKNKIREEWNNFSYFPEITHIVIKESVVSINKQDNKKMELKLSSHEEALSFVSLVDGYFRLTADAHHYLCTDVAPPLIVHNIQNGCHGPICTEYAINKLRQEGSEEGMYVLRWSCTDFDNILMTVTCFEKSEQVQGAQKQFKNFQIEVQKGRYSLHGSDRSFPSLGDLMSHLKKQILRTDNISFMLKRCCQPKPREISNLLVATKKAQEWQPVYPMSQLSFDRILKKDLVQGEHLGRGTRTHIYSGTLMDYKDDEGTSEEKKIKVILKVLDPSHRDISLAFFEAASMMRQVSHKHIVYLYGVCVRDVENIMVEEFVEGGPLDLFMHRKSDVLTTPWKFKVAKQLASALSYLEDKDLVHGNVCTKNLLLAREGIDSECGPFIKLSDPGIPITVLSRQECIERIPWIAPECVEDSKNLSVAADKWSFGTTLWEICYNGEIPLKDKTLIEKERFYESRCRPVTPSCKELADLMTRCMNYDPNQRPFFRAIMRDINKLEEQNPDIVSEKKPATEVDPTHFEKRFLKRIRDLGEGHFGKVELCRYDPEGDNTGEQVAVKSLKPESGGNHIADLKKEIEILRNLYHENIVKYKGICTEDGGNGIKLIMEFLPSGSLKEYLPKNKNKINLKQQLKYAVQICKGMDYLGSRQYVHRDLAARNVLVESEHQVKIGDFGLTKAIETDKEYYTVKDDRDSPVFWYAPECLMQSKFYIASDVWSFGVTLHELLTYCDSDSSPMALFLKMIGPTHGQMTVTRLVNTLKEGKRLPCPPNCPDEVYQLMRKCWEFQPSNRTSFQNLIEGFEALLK
Base-10 log of EC50, unit µM.

Past entries and their recorded results:
CO[C@]1(c2cc(OCC3COC3)cc(-c3cn(C)c4cnc(NC(C)=O)cc34)n2)CCOC1 [US20190276450, Example 6.2]: 0.72
CO[C@@]1(c2cc(OCC3COC3)cc(-c3cn(C)c4cnc(NC(C)=O)cc34)n2)CCOC1 [US20190276450, Example 6]: 1.32
CO[C@@]1(c2cc(C)cc(-c3cn([C@H]4C[C@@H](C#N)C4)c4cnc(NC(C)=O)cc34)n2)CCOC1 [US20190276450, Example 17.5]: 1.51

Each of the following entries comes with a recorded value; kindly state log10 of EC50 for each.
1. CC[C@@]1(c2cccc(-c3cn(C)c4cnc(NC(C)=O)cc34)n2)CCOC1 [US20190276450, Example 2.3]
2. CO[C@@]1(c2cc(C#N)cc(-c3cn([C@@H]4CC4(F)F)c4cnc(NC(C)=O)cc34)n2)CCOC1 [US20190276450, Example 2a.3]

Response given:
[1.26, 1.75]
